Biological target: IDO1 (Homo sapiens, UniProt P14902)
Sequence (P14902 whole entry): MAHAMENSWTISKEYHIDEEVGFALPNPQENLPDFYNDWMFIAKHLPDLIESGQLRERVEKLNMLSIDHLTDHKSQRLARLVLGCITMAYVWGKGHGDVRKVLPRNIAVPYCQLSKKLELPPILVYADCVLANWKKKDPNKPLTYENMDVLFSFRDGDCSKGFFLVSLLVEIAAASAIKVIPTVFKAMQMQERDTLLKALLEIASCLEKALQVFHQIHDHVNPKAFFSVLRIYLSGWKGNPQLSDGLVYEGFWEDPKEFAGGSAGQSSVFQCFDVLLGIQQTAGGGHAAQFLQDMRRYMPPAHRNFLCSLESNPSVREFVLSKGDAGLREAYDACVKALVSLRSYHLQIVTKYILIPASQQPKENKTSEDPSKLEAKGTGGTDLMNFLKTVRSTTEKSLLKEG
Test: IDO1 enzymatic assay
Type: biochemical
Parameters: His tag (N); made in house; host or cells: E. coli
Conditions: read-out: Enzyme IC50 IDO1
endpoint_label: pIC50
Formally, pIC50 is defined as -log10 of the concentration c, with c in mol/L.

CC(=O)c1ccc([C@H]2CC[C@H]([C@H](O)c3c(C4CC4)ccn4cncc34)CC2)cc1 [Example C125]	7.39
OC(c1c(C2CC2)ccc2cncn12)C1CCC(c2ccc(C(F)(F)F)nc2)CC1 (stereo not shown) [Example D107]	7.52
CC(C)c1ccc2cncn2c1[C@@H](O)[C@H]1CC[C@H](c2cccc(Cl)c2)CC1 (single isomer, unassigned) [Example D168a]	7.77

Note pIC50 for the molecule shown: CNC(=O)c1ccc(C2CCC(C(O)c3c(C4CC4)ccc4cncn34)CC2)cc1 (stereo not shown) [Example D124] 7.66

Note pIC50 for the molecule shown: O[C@@H](c1c(C2CC2)ccc2cncn12)C1CCC(c2csc3ccccc23)CC1 (single isomer, unassigned) [Example D155b] 5.05

Note pIC50 for the molecule shown: OC(c1c(C2CC2)ccc2cncn12)C1CCC(c2ccc(Oc3ccccc3)cc2)CC1 (stereo not shown) [Example D120] 7.00
